Cited source for all entries: patent US12324893B2

- assay.protocol: Effect of filament density, poration energy and filament array size on PK profile (Examples 7-9)
- Parameters: species or system guinea pigs
- applied.conditions: guinea pig, in vivo, topical or ocular, 2 mg, Table 13 # 3: 400 filaments/cm^2, 3 mJ/filament, area 1.0 cm^2; patch 2.00 mg Zolmitriptan
result.type: Cmax

Entry CN(C)CCc1c[nH]c2ccc(C[C@H]3COC(=O)N3)cc12 [Zolmitriptan] — recorded Cmax = 487 ng/mL

----------
- assay.protocol: Effect of filament density, poration energy and filament array size on PK profile (Examples 7-9)
- Design: species or system guinea pigs
- applied.conditions: guinea pig, in vivo, topical or ocular, 2 mg, Table 15 # 1: 400 filaments/cm^2, 2 mJ/filament, area 1.0 cm^2; patch 2.00 mg Zolmitriptan
- Description: This example describes various effects of filament density. To investigate the effect of filament density on PK profile and side effects (pain by poration and skin irritation), these studies were conducted. The filament density mainly affects the area to be utilized for the transfer of body fluid and ingredients in between skin and patch. The range of filament density was 100 filaments/cm^2 to 400 filaments/cm^2, and the poration energy was from 3 to 4 mJ/filament. […]
result.type: AUC (ng·h/mL)
Numeric answer only, unit ng·h/mL assumed.

Entry CN(C)CCc1c[nH]c2ccc(C[C@H]3COC(=O)N3)cc12 [Zolmitriptan] — recorded AUC = 1490

----------
- assay.protocol: Effect of filament density, poration energy and filament array size on PK profile (Examples 7-9)
- Parameters: species or system guinea pigs
- applied.conditions: guinea pig, in vivo, topical or ocular, 3 mg, Table 17 # 3: dose 3.00 mg, 4 mJ/filament, filament array area 1.0 cm^2, 400 filaments/cm^2
result.type: Cmax (ng/mL)
Numeric answer only, unit ng/mL assumed.

Entry CN(C)CCc1c[nH]c2ccc(C[C@H]3COC(=O)N3)cc12 — recorded Cmax = 756

----------
- assay.protocol: Administration route study in hairless rats (Example 4)
- Type: in vivo
- applied.conditions: rat, blood, inhaled or intranasal, Group 2: 2 mg zolmitriptan
result.type: AUC
Reply with a number, then the unit it belongs to.

Entry CN(C)CCc1c[nH]c2ccc(C[C@H]3COC(=O)N3)cc12 — recorded AUC = 239 ng·h/mL

----------
- assay.protocol: Effect of filament density, poration energy and filament array size on PK profile (Examples 7-9)
- Set-up: species or system guinea pigs
- applied.conditions: guinea pig, in vivo, topical or ocular, 2 mg, Table 15 # 4: 400 filaments/cm^2, 5 mJ/filament, area 1.0 cm^2; patch 2.00 mg Zolmitriptan
result.type: Tmax (h)
Numeric answer only, unit h assumed.

Entry CN(C)CCc1c[nH]c2ccc(C[C@H]3COC(=O)N3)cc12 — recorded Tmax = 1.33

----------
- assay.protocol: Effect of filament density, poration energy and filament array size on PK profile (Examples 7-9)
- Parameters: species or system guinea pigs
- applied.conditions: guinea pig, in vivo, sc, 4 mg, Table 17 # 4: dose 4.00 mg, 4 mJ/filament, 1.5 cm^2, 400 filaments/cm^2; relative bioavailability against SC injection; read-out: Bioavailability ± SE
result.type: bioavailability

Entry CN(C)CCc1c[nH]c2ccc(C[C@H]3COC(=O)N3)cc12 [Zolmitriptan] — recorded bioavailability = 88.9%

----------
- assay.protocol: Administration route study in guinea pigs (Example 5)
- Type: in vivo
- applied.conditions: guinea pig, blood, Group 1: 10 mg base/4 ml, oral route
result.type: Cmax (ng/mL)
Numeric answer only, unit ng/mL assumed.

Entry CN(C)CCc1c[nH]c2ccc(C[C@H]3COC(=O)N3)cc12 — recorded Cmax = 910

----------
- assay.protocol: Effect of filament density, poration energy and filament array size on PK profile (Examples 7-9)
- Design: species or system guinea pigs
- applied.conditions: guinea pig, in vivo, topical or ocular, 2 mg, Table 13 # 2: 200 filaments/cm^2, 3 mJ/filament, area 1.0 cm^2; patch 2.00 mg Zolmitriptan
result.type: Tmax (h)
Numeric answer only, unit h assumed.

Entry CN(C)CCc1c[nH]c2ccc(C[C@H]3COC(=O)N3)cc12 — recorded Tmax = 1.31

----------
- assay.protocol: Administration route study in guinea pigs (Example 5)
- Assay type: in vivo
- applied.conditions: guinea pig, blood, sc, Group 5: 2 mg/200 μL, SubQ
result.type: Cmax (µg/mL)
Numeric answer only, unit µg/mL assumed.

Entry CN(C)CCc1c[nH]c2ccc(C[C@H]3COC(=O)N3)cc12 — recorded Cmax = 3.88

----------
- assay.protocol: Effect of filament density, poration energy and filament array size on PK profile (Examples 7-9)
- Parameters: species or system guinea pigs
- applied.conditions: guinea pig, in vivo, topical or ocular, 2 mg, Table 13 # 5: 200 filaments/cm^2, 4 mJ/filament, area 1.0 cm^2; patch 2.00 mg Zolmitriptan
- Protocol: This example describes various effects of filament density. To investigate the effect of filament density on PK profile and side effects (pain by poration and skin irritation), these studies were conducted. The filament density mainly affects the area to be utilized for the transfer of body fluid and ingredients in between skin and patch. The range of filament density was 100 filaments/cm^2 to 400 filaments/cm^2, and the poration energy was from 3 to 4 mJ/filament. […]
result.type: AUC
Reply with a number, then the unit it belongs to.

Entry CN(C)CCc1c[nH]c2ccc(C[C@H]3COC(=O)N3)cc12 — recorded AUC = 1030 ng·h/mL

----------
- assay.protocol: Effect of filament density, poration energy and filament array size on PK profile (Examples 7-9)
- Set-up: species or system guinea pigs
- applied.conditions: guinea pig, in vivo, topical or ocular, 3 mg, Table 17 # 3: dose 3.00 mg, 4 mJ/filament, filament array area 1.0 cm^2, 400 filaments/cm^2
result.type: AUC (µg·h/mL)
Numeric answer only, unit µg·h/mL assumed.

Entry CN(C)CCc1c[nH]c2ccc(C[C@H]3COC(=O)N3)cc12 [Zolmitriptan] — recorded AUC = 2.35

----------
- assay.protocol: Effect of filament density, poration energy and filament array size on PK profile (Examples 7-9)
- Set-up: species or system guinea pigs
- applied.conditions: guinea pig, in vivo, topical or ocular, 2 mg, Table 15 # 3: 400 filaments/cm^2, 4 mJ/filament, area 1.0 cm^2; patch 2.00 mg Zolmitriptan
result.type: AUC (ng·h/mL)
Numeric answer only, unit ng·h/mL assumed.

Entry CN(C)CCc1c[nH]c2ccc(C[C@H]3COC(=O)N3)cc12 [Zolmitriptan] — recorded AUC = 2100

----------
- assay.protocol: Administration route study in guinea pigs (Example 5)
- Format: in vivo
- applied.conditions: guinea pig, blood, Group 1: 10 mg base/4 ml, oral route
result.type: Tmax
Reply with a number, then the unit it belongs to.

Entry CN(C)CCc1c[nH]c2ccc(C[C@H]3COC(=O)N3)cc12 — recorded Tmax = 26.4 min

----------
- assay.protocol: Effect of filament density, poration energy and filament array size on PK profile (Examples 7-9)
- Parameters: species or system guinea pigs
- applied.conditions: guinea pig, in vivo, sc, 2 mg, Table 13 # 3: 400 filaments/cm^2, 3 mJ/filament, 1.0 cm^2; 2.00 mg patch; relative bioavailability against SC injection; read-out: Bioavailability ± SE
- Procedure: This example describes various effects of filament density. To investigate the effect of filament density on PK profile and side effects (pain by poration and skin irritation), these studies were conducted. The filament density mainly affects the area to be utilized for the transfer of body fluid and ingredients in between skin and patch. The range of filament density was 100 filaments/cm^2 to 400 filaments/cm^2, and the poration energy was from 3 to 4 mJ/filament. […]
result.type: bioavailability (%)
Numeric answer only, unit % assumed.

Entry CN(C)CCc1c[nH]c2ccc(C[C@H]3COC(=O)N3)cc12 — recorded bioavailability = 85

----------
- assay.protocol: in vivo
- applied.conditions: hairless, rat, topical or ocular, 9 mg
result.type: AUC (ng·h/mL)
Numeric answer only, unit ng·h/mL assumed.

Entry CNS(=O)(=O)Cc1ccc2[nH]cc(CCN(C)C)c2c1 [Sumatriptan Succinate] — recorded AUC = 4390

----------
- assay.protocol: Effect of filament density, poration energy and filament array size on PK profile (Examples 7-9)
- Parameters: species or system guinea pigs
- applied.conditions: guinea pig, in vivo, sc, 2 mg, Table 13 # 6: 400 filaments/cm^2, 4 mJ/filament, 1.0 cm^2; 2.00 mg patch; relative bioavailability against SC injection; read-out: Bioavailability ± SE
result.type: bioavailability (%)
Numeric answer only, unit % assumed.

Entry CN(C)CCc1c[nH]c2ccc(C[C@H]3COC(=O)N3)cc12 — recorded bioavailability = 102

----------
- assay.protocol: Administration route study in hairless rats (Example 4)
- Assay type: in vivo
- applied.conditions: rat, blood, Group 1: 2 mg zolmitriptan, oral administration
result.type: AUC (ng·h/mL)
Numeric answer only, unit ng·h/mL assumed.

Entry CN(C)CCc1c[nH]c2ccc(C[C@H]3COC(=O)N3)cc12 — recorded AUC = 227

----------
- assay.protocol: Effect of filament density, poration energy and filament array size on PK profile (Examples 7-9)
- Design: species or system guinea pigs
- applied.conditions: guinea pig, in vivo, topical or ocular, 2 mg, Table 15 # 1: 400 filaments/cm^2, 2 mJ/filament, area 1.0 cm^2; patch 2.00 mg Zolmitriptan
result.type: Cmax (ng/mL)
Numeric answer only, unit ng/mL assumed.

Entry CN(C)CCc1c[nH]c2ccc(C[C@H]3COC(=O)N3)cc12 [Zolmitriptan] — recorded Cmax = 484
